These measurements were taken from ChEMBL document CHEMBL3988442.

Percent Effect values by entry
System under test: Protein translocase subunit SecA (Escherichia coli (strain K12)) (UniProt P10408)
Sequence (P10408 whole entry): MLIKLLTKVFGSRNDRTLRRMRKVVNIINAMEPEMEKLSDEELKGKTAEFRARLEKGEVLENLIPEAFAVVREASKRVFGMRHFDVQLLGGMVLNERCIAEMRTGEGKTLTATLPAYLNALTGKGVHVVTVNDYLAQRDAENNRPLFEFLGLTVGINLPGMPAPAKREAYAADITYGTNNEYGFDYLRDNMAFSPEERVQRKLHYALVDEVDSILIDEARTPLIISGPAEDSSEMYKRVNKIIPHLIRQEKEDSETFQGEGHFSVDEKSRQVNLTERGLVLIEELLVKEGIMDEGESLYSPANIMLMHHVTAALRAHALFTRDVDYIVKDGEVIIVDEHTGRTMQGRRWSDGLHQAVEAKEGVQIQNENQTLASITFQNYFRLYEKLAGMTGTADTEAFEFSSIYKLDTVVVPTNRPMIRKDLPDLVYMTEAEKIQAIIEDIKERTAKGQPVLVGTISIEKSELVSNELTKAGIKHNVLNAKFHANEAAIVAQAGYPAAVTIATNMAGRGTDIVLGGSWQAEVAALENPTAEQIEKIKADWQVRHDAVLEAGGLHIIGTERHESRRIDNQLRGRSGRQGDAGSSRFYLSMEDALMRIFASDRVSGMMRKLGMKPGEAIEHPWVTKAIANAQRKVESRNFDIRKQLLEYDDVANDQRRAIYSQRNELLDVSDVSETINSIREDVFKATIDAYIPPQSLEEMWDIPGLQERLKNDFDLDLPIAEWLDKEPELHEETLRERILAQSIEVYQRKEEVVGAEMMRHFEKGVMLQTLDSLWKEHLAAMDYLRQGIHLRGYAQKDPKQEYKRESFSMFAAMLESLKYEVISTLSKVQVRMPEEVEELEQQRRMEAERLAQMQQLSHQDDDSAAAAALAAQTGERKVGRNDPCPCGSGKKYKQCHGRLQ
Experiment: Assay to Identify E. coli SecA ATPase Inhibitors
Assay type: functional
Parameters: scale not given: direction of the effect not stated beside the values
Condition description: 30 µM
Entries with a potency or affinity are not part of this list.
Quantity: Percent Effect (%)

1. CC(O)CN1CCN(C(=O)c2cnn(-c3ccc(Cl)cc3)c2)CC1 (centres undefined)	-8.22
2. Cc1ncccc1CNCC1CCN(CC(O)c2ccccc2)CC1 (centres undefined)	-5.43
3. CCn1c(N)nc2cc(C(=O)NCCc3ccccc3C)cnc21	-2.81
4. COc1ccc(C(=O)NS(=O)(=O)c2ccc(C#N)cc2C(F)(F)F)cc1	-1.41
5. CCN(C)c1ncnc2c1CCN(C(=O)N1CCCC1)CC2	1.86
6. Cc1ccc(CN2CC[C@H]3[C@@H]2CCC(=O)N3CCN2CCCC2)s1	-1.28
7. CN(c1cccnn1)C1CCN(C(=O)c2ccc3c(c2)COC3)CC1	-7.72
8. Cc1occc1C(=O)N1CCO[C@H]2[C@@H](Oc3ccccn3)CC[C@@H]21	-1.87
9. O=C(c1ccncc1F)N1CCN(CC2CC2)c2ncccc2C1	-8.25
10. CS(=O)(=O)NCCCN1CCCC1Cc1ccccc1 (centres undefined)	-4.3
11. Cc1cc(C)n(CC2CCCN2C(=O)c2ccc3c(c2)OCO3)n1 (centres undefined)	-1.47
12. Cc1ccc([C@]2(O)CC[C@H]3CN(Cc4cccc(Cl)c4Cl)C[C@H]32)nc1	-2.93
13. Cc1ccc(C)c(OC2CCN(C(=O)c3ccc(O)nc3)CC2)c1	-1.92
14. Cc1cc(C)n(CC(=O)NC(Cc2ccsc2)c2ccccn2)c(=O)n1 (centres undefined)	-10.3

---

# Lookup of reported Percent Effect keyed by entry
System under test: AMP-activated protein kinase, AMPK (Homo sapiens) (UniProt P54646+O43741+P54619+Q9UGJ0+Q9Y478+Q13131+Q9UGI9)
Experiment: AMP-dependent Kinase enzyme assay. An in vitro enzyme assay that detects ADP turnover that is directly proportional to AMPK activity. This uses naive AMPK that is activated during the assay with MK-8722
Format: functional
Parameters: scale not given: direction of the effect not stated beside the values
Condition description: 30 µM
Quantity: Percent Effect (%)

1. CNC(=O)C1Cn2ccnc2C2(CCN(Cc3cccc(C)n3)CC2)O1 (centres undefined)	2.26
2. CN(C)C(=O)N1C[C@@H]2COC[C@]2(CNS(C)(=O)=O)C1	5.5
3. CNS(=O)(=O)c1cccc(C(C)NCc2nccn2C(C)C)c1 (centres undefined)	-9.13
4. CC(=O)N1CCOCC2(CN(Cc3ccc(C)o3)CCO2)C1 (centres undefined)	0.553

---

Listing of entries alongside the reported Percent Effect.
System under test: Chromo domain-containing protein 1 (Saccharomyces cerevisiae (strain ATCC 204508 / S288c) (Baker's yeast))
Experiment: ScCHD-1 Enzyme Inhibition Assay; further: in the data most compounds retested in dose-response had high values
Assay type: functional
Parameters: scale not given: direction of the effect not stated beside the values
Condition description: 30 µM
Quantity: Percent Effect (%)

1. CC(NC(=O)NCCCn1cncn1)c1ccc2c(c1)OCCO2 (stereo not given)	-2.48
2. CN(C)c1cc2c(nn1)CCN(C(=O)C1Cc3ccccc3S1)C2 (stereo not given)	9.74
3. CS(=O)(=O)N1CCOCC2(CCN(C(=O)c3cccnc3)CC2)C1	-3.11
4. O=C1CC(NCc2ccncc2)CN1Cc1cccc(F)c1 (stereo not given)	-0.358
5. CCc1c(C)nc2n(c1=O)CC(C(=O)Nc1ccccc1F)CS2 (stereo not given)	-4.84
6. CSCc1cccc(S(=O)(=O)N2CCSCC2)c1	-9.22
7. O=C(c1ccsc1)N1C[C@@H](CN2CCCC2)[C@@H](CO)C1	-4.1
8. CN(C)Cc1nn(C)c2c1CCN(S(=O)(=O)c1cccs1)C2	-7.57
9. CC(C)CN1CCC(C(=O)Nc2cc(C(F)(F)F)c[nH]c2=O)CC1	-10.2
10. FC(F)(F)COCCN1CCN(c2ccc3nncn3n2)CC1	-6.46
11. CCc1n[nH]c(C2CN(C(=O)c3csnn3)CCO2)n1 (stereo not given)	-11.6
12. NC(=O)COc1cccc(C(=O)Nc2cnc3n2CCCC3)c1	-3.57
13. CCO[C@H]1CO[C@@]2(CCCN(Cc3nc(C)cs3)C2)C1	-4.88
14. OC[C@H]1CC[C@]2(CC1)CN(Cc1ccccn1)Cc1ccccc1O2	-8.96
15. O=C(c1ccccn1)N1CCCC(c2nccn2CC2CCC2)C1 (stereo not given)	-2.91
